- Test system: IM-95 (Gastric Carcinoma);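 also: after 72 h of two-drug dosing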
- experimental-details: Bliss excess, mean over the matrix (fraction); higher = more synergy
Kind request: treat 0.01 as inclusive, so Bliss excess at 0.01 or higher is y, anything lower is n.

Ask: Could you please find out whether NC1(C(=O)N[C@@H](CCO)c2ccc(Cl)cc2)CCN(c2ncnc3[nH]ccc23)CC1 [Capivasertib] + CC(=O)c1c(C)c2cnc(Nc3ccc(N4CCNCC4)cn3)nc2n(C2CCCC2)c1=O [Palbociclib] (first compound max 10 µM, 7x7, partner max 10 µM) has Bliss excess that meets 0.01 or exceeds it?
Result: y

Ask: Form field: Bliss excess at least 0.01? Entry: CCN(CCO)CCCOc1ccc2c(Nc3cc(CC(=O)Nc4cccc(F)c4)[nH]n3)ncnc2c1 [AZD2811] + O=C(c1cc(Cc2n[nH]c(=O)c3ccccc23)ccc1F)N1CCN(C(=O)C2CC2)CC1 [Olaparib] (first compound max 1 µM, 7x7, partner max 10 µM)
Result: n

Ask: Does the compound Cc1cc2ncnn2cc1Nc1ncc2c(n1)n(C1CCOCC1)c(=O)n2C [AZD7648] + O=C(c1cc(Cc2n[nH]c(=O)c3ccccc23)ccc1F)N1CCN(C(=O)C2CC2)CC1 [Olaparib] (first compound max 10 µM, 7x7, partner max 10 µM) have recorded Bliss excess that is 0.01 or more?
Result: n

Ask: Entry CN(CCO)CC[C@H](CSc1ccccc1)Nc1ccc(S(=O)(=O)NC(=O)c2ccc(N3CCC([C@@H](O)c4ccccc4-c4ccc(Cl)cc4)CC3)cc2)cc1S(=O)(=O)C(F)(F)F [AZD4320] + C[C@@H]1COCCN1C2=NC(=NC(=C2)C3(CC3)[S@](=N)(=O)C)C4=C5C=CNC5=NC=C4 [AZD6738] (first compound max 1 µM, 7x7, partner max 10 µM) : is its Bliss excess no less than 0.01?
Result: n

Ask: Does Bliss excess meet or surpass 0.01 for COc1nnc2ccc(N3CCC(c4ccc(OCCN5CCN(C)C(=O)[C@H]5C)cc4)CC3)nn12 [AZD5153] + Cn1cnc2c(F)c(Nc3ccc(Br)cc3Cl)c(C(=O)NOCCO)cc21 [Selumetinib] (first compound max 1 µM, 7x7, partner max 10 µM) ?
Result: y

Ask: Hello, I need to know if CCN(CCO)CCCOc1ccc2c(Nc3cc(CC(=O)Nc4cccc(F)c4)[nH]n3)ncnc2c1 [AZD2811] + C=CCn1c(=O)c2cnc(Nc3ccc(N4CCN(C)CC4)cc3)nc2n1-c1cccc(C(C)(C)O)n1 [AZD1775] (first compound max 1 µM, partner max 1 µM) has measured Bliss excess not below 0.01. Thanks!
Result: y

Ask: Check the entry Cc1cc2ncnn2cc1Nc1ncc2c(n1)n(C1CCOCC1)c(=O)n2C [AZD7648] + CN(C)CCCOc1ccc(-c2ccc3ncc4c(c3c2)n(C2CCOCC2)c(=O)n4C)cn1 [AZD0156] (first compound max 10 µM, 7x7, partner max 1 µM) : does Bliss excess equal or exceed 0.01?
Result: y

From: the supplement of paper PMC11061612
